TEST TARGET: GSK3α (Homo sapiens, UniProt P49840)
Sequence (P49840 whole entry, species assumed): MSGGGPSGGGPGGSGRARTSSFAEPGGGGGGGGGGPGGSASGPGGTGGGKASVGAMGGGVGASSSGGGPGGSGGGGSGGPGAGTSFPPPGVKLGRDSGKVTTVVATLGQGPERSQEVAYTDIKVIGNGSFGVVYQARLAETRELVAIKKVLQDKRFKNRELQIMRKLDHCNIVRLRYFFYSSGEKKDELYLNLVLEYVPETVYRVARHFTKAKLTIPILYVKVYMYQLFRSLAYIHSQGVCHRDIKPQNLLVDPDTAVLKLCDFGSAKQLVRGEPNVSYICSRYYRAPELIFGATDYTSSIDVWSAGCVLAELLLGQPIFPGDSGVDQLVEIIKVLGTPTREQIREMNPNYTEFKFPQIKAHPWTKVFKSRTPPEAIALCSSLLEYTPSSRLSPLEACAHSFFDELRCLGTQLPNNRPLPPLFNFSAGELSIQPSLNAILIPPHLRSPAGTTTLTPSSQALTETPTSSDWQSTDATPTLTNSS
MEASUREMENT PROTOCOL: GSK3α kinase assay (Caliper LabChip, fluoresceinated peptide substrate)
Assay type: biochemical
Please respond with reported pIC50 for every item in the list.
One number for each entry, as −log10 of the molar value.

The examples below pair each entry with its known result.
INSERT INTO results (compound, readout_label, measured_value) VALUES
  ('O=C(Nc1cnc(Cl)cc1C1(O)CCOCC1)c1ccnc(Nc2ccc(C(F)(F)F)cn2)c1 [Example 74]', 'pIC50', 8.60),
  ('COc1cccc(Nc2cc(C(=O)Nc3cncc(-c4ccccc4F)c3)ccn2)n1 [Example 139]', 'pIC50', 8.49),
  ('O=C(Nc1cnncc1-c1ccccc1)c1ccnc(Nc2ccc(C(F)(F)F)cn2)c1 [Example 198]', 'pIC50', 8.54);

--- query ---
## Task What is its pIC50 for GSK3α (Homo sapiens, UniProt P49840)? Entry: N#Cc1ccc(-c2ccncc2NC(=O)c2ccnc(Nc3ccc(C(F)(F)F)cn3)c2)c(F)c1 [Example 52]
## Result 8.82

* * *

TEST TARGET: GSK3β (Homo sapiens, UniProt P49841)
Sequence (P49841 whole entry, species assumed): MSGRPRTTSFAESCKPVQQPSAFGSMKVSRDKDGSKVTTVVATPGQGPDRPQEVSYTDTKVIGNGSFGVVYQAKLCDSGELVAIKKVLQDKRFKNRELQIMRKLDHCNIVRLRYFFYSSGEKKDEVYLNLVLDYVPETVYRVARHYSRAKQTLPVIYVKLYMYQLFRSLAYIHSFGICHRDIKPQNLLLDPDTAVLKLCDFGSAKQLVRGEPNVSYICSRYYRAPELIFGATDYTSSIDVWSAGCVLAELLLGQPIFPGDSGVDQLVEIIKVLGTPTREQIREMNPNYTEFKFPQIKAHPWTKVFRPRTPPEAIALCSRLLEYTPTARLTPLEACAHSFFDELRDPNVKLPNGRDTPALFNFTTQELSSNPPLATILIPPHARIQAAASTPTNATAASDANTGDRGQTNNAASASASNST
MEASUREMENT PROTOCOL: GSK3β kinase assay (Caliper LabChip, fluoresceinated peptide substrate)
Format: biochemical
CONDITION: first value of the cell; 250 pM enzyme, 20 uM ATP, 20 hours at room temperature; read-out: GSK3β/α (nM): GSK3β IC50
Use IC50 to assign classes; range list: LOW = under 2 nM, MEDIUM = from 2 nM up to 4 nM, HIGH = 4 nM and over

INSERT INTO measurements (molecule, assigned_class) VALUES
  ('C[C@H]1COCCN1c1ccncc1NC(=O)c1ccnc(Nc2ccc(C(F)(F)F)cn2)c1', 'LOW'),
  ('CC1(c2ccncc2NC(=O)c2ccnc(Nc3ccc(C(F)(F)F)cn3)c2)OCCO1', 'LOW'),
  ('CCC1(c2cc(Cl)ncc2NC(=O)c2ccnc(Nc3ccc(F)cn3)c2)OCCO1', 'LOW'),
  ('O=C(Nc1cncc(-c2ccccc2Cl)c1)c1ccnc(Nc2cccc(C(F)(F)F)n2)c1', 'HIGH'),
  ('Cc1ccnc(Nc2cc(C(=O)Nc3cnccc3-c3ccccc3)ccn2)c1', 'LOW');

## Task Please let me know in which category the item "CC(=O)c1c(NC(=O)c2ccnc(Nc3ccc(C(F)(F)F)cn3)c2)cnn1C" belongs.
## Result MEDIUM

## Task "O=C(Nc1cnccc1C1=CCOCC1)c1ccnc(Nc2ccc(C(F)(F)F)cn2)c1" ?
## Result MEDIUM

## Task Next molecule: "N#Cc1ccc(Nc2cc(C(=O)Nc3cnccc3-c3ccccc3)ccn2)nc1"
## Result LOW

* * *

TEST TARGET: GSK3β (Homo sapiens)
MEASUREMENT PROTOCOL: GSK3β kinase assay (Caliper LabChip, fluoresceinated peptide substrate)
Type: biochemical
CONDITION: first value of the cell; 250 pM enzyme, 20 uM ATP, 20 hours at room temperature; read-out: GSK3β/α (nM): GSK3β IC50
READOUT LABEL: log10 of IC50 (log10 of the value in nM)
Hello, just confirming the data are log10 of IC50 with units of nM.

INSERT INTO results (compound, test_target, readout_label, measured_value) VALUES
  ('O=C(Nc1cnncc1-c1ccccc1)c1ccnc(Nc2ccc(C(F)(F)F)cn2)c1', 'GSK3β (Homo sapiens)', 'log10 of IC50', 0.83);

I'm hoping you can list log10 of IC50 for every compound here, please.
1. CC(C)(C)COc1ccncc1NC(=O)c1ccnc(Nc2ccc(C#N)cn2)c1
2. N#Cc1ccc(-c2ccncc2NC(=O)c2ccnc(Nc3ccc(C(F)(F)F)cn3)c2)c(F)c1
3. CC(C)(C)C(O)c1cc(Cl)ncc1NC(=O)c1ccnc(Nc2ccc(C(F)(F)F)cn2)c1 (stereo not shown)

## Result
0.63
0.56
1.26

Hi, could you look up log10 of IC50 for each item in my list?
1. O=C(Nc1cn[nH]c1-c1ccccc1)c1ccnc(Nc2ccc(C(F)(F)F)cn2)c1
2. CN(C)S(=O)(=O)c1ccc(Nc2cc(C(=O)Nc3cnccc3OCC(F)(F)F)ccn2)nc1

## Result
1. 1.45
2. -0.30

For every record below, what is its log10 of IC50?
1. O=C(Nc1cnccc1N1CCC(F)(F)CC1)c1ccnc(Nc2ccc(C(F)(F)F)cn2)c1
2. CC(C)Sc1ccncc1NC(=O)c1ccnc(Nc2ccc(C(F)(F)F)cn2)c1
3. CCOc1ccncc1NC(=O)c1ccnc(Nc2ccc(C(F)(F)F)cn2)c1
4. O=C(Nc1cnccc1OCC(F)(F)F)c1ccnc(Nc2ccc(C(F)(F)F)cn2)c1
5. C[C@@H]1CO[C@](c2cc(Cl)ncc2NC(=O)c2ccnc(Nc3ccc(C(F)(F)F)cn3)c2)(C2CC2)O1

## Result
[-0.16, -0.28, 0.11, -0.15, -0.54]

# batch: return log10 of IC50 for each of the 5 compounds below
1. O=C(Nc1cnc(Cl)cc1C(O)(C1CC1)C1CC1)c1ccnc(Nc2ccc(C(F)(F)F)cn2)c1
2. O=C(Nc1cncc(-c2ccccc2F)n1)c1ccnc(Nc2ccc(C(F)(F)F)cn2)c1
3. O=C(Nc1cnncc1C(=O)C1CC1)c1ccnc(Nc2ccc(C(F)(F)F)cn2)c1
4. CC(C)C1(c2cc(Cl)ncc2NC(=O)c2ccnc(Nc3ccc(C(F)(F)F)cn3)c2)OCCO1
5. CC1(c2cc(OCCO)ncc2NC(=O)c2ccnc(Nc3ccc(C(F)(F)F)cn3)c2)OCCO1

## Result
1. 0.81
2. 1.83
3. 0.46
4. 0.04
5. 0.96

* * *

TEST TARGET: GSK3α (Homo sapiens, UniProt P49840)
MEASUREMENT PROTOCOL: GSK3α kinase assay (Caliper LabChip, fluoresceinated peptide substrate)
Assay type: biochemical
READOUT LABEL: pIC50
Give bare numbers, as −log10 of the molar value.

Please give pIC50, item by item, for the list that follows.
1. O=C(Nc1cnc(F)cc1OCC(F)F)c1ccnc(Nc2ccc(C(F)(F)F)cn2)c1 [Example 80]
2. CC(C)(C#N)c1ccc(Nc2cc(C(=O)Nc3cnccc3-c3ccccc3)ccn2)nc1 [Example 61]
3. O=C(Nc1cnccc1-c1ccccn1)c1ccnc(Nc2ccc(C(F)(F)F)cn2)c1 [Example 43]
4. O=C(Nc1cncc2ccccc12)c1ccnc(Nc2ccc(C(F)(F)F)cn2)c1 [Example 64]

## Result
[8.48, 9.27, 9.23, 8.51]

* * *

TEST TARGET: GSK3α (Homo sapiens, UniProt P49840)
MEASUREMENT PROTOCOL: GSK3α kinase assay (Caliper LabChip, fluoresceinated peptide substrate)
Type: biochemical
The following ranges of IC50 define the classes used here: lower level = under 0.9 nM, middle level = from 0.9 nM up to 2 nM, upper level = 2 nM and over

Would you please look over these solved cases?
INSERT INTO results (compound, assigned_class) VALUES
  ('CC(O)(c1cc(Cl)ncc1NC(=O)c1ccnc(Nc2ccc(C(F)(F)F)cn2)c1)C1CC1 (centres unmarked) [Example 98]', 'upper level'),
  ('CC(C)[S+]([O-])c1ccncc1NC(=O)c1ccnc(Nc2ccc(C(F)(F)F)cn2)c1 (centres unmarked) [Example 179]', 'middle level'),
  ('CCOc1ccncc1NC(=O)c1ccnc(Nc2ccc(C)cn2)c1 [Example 14]', 'middle level'),
  ('CCCSc1ccncc1NC(=O)c1ccnc(Nc2ccc(C(F)(F)F)cn2)c1 [Example 170]', 'lower level'),
  ('CC1(c2ccncc2NC(=O)c2ccnc(Nc3ccc(C(F)(F)F)cn3)c2)OCCO1 [Example 33]', 'lower level'),
  ('O=C(Nc1cnccc1C1=CCCCO1)c1ccnc(Nc2ccc(C(F)(F)F)cn2)c1 [Example 39]', 'middle level'),
  ('Cc1ccc(Nc2cc(C(=O)Nc3cncc(-c4ccccc4F)c3)ccn2)nc1 [Example 133]', 'upper level'),
  ('O=C(Nc1cnccc1-c1ccccc1)c1ccnc(Nc2ccc(Br)cn2)c1 [Example 63]', 'upper level'),
  ('CC1(C)CN(c2ccncc2NC(=O)c2ccnc(Nc3ccc(C(F)(F)F)cn3)c2)CCO1 [Example 22]', 'lower level'),
  ('CCOc1ccncc1NC(=O)c1ccnc(Nc2ccc(C(F)(F)F)cn2)c1 [Example 15]', 'lower level');

## Task Which band does CC[C@@]1(c2cc(Cl)ncc2NC(=O)c2ccnc(Nc3ccc(C(F)(F)F)cn3)c2)OC[C@H](C(F)(F)F)O1 [Example 86] fall in?
## Result upper level

## Task And what about the compound COc1cc(C2(C)OCCO2)c(NC(=O)c2ccnc(Nc3ccc(C(F)(F)F)cn3)c2)cn1 [Example 91] ?
## Result upper level

## Task Request: O=C(Nc1cnncc1C1(CCCCl)OCCO1)c1ccnc(Nc2ccc(C(F)(F)F)cn2)c1 [Example 201]
## Result lower level

## Task Follow-up item: O=C(Nc1cncc(-c2ccccc2F)c1)c1ccnc(Nc2ccc3ccccc3n2)c1 [Example 142]
## Result upper level

## Task O=C(Nc1cnncc1C(=O)C1CC1)c1ccnc(Nc2ccc(C(F)(F)F)cn2)c1 [Example 202] , same question.
## Result middle level

## Task Another compound: CCOc1ccncc1NC(=O)c1ccnc(Nc2cc(C)ccn2)c1 [Example 13]
## Result upper level

## Task Further, for O=C(Nc1cncc(-c2ccccc2F)c1)c1ccnc(Nc2ccc(S(=O)(=O)N3CCCCC3)cn2)c1 [Example 159] ?
## Result middle level
